In this section, each of the binders is paired with its reported Kd.
# target_system: T1, Human TNFR2 (human, UniProt P20333 23-461)
# T1 construct: On cells: HeLa-TNFR2, HT1080-Bcl2-TNFR2, transiently transfected HEK293; endogenous on Kym-1 cells; also called huTNFR2; TNFRSF1B
# T1 sequence: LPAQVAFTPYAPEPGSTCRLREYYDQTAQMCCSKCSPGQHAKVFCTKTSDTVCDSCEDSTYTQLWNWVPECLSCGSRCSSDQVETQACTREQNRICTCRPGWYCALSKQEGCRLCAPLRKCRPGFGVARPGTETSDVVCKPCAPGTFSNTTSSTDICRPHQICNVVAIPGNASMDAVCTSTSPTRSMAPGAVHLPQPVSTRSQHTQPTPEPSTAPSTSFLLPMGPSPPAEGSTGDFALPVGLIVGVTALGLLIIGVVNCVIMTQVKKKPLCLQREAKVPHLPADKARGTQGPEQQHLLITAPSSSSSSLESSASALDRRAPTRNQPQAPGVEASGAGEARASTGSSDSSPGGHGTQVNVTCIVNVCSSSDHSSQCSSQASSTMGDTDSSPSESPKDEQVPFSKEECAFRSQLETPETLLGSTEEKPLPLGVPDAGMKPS
# protocol_summary: binding of 3xVHH-Fc-GpL to HEK293 cells transiently transfected with TNFR2; empty-vector cells as unspecific binding
The reply should be a number in ng/mL, with the unit left off.

(Q) # query: Kd of entry 3xVHH:C238-Fc-GpL (Fc fusion, not shown: a dimerising Fc or GST; small tags and cut ends, also called hexavalent 3×VHH-Fc-GpL construct of C238) VHH: QVQLVESGGGSVQPGGSLTLSCVDSGSAYLSYCMAWFRQAPGKEREGVAAIYYGGDSYYADSVKGRFTISQDHAKNTMYLQMNSLKPEDTAVYYCAADVGFICGYDSDNDPPNDWGQGTQVTVSS
(A) 8

Data credit: patent US20240190983A1
